Target: Peroxisome proliferator-activated receptor delta (Homo sapiens)
Sequence (Q03181 whole entry): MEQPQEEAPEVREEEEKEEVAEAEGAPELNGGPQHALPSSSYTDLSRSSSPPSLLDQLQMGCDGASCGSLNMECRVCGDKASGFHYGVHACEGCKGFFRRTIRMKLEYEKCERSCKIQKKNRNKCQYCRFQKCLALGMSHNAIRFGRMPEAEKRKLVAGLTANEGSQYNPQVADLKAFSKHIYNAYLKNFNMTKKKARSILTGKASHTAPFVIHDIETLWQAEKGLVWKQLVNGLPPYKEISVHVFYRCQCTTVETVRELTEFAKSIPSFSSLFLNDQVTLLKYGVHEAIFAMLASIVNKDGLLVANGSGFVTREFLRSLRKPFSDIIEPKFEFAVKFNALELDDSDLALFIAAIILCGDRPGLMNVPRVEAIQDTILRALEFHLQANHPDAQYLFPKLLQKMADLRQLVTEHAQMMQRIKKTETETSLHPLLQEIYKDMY
pIC50: −log10 of the molar value.
parameter measured: pIC50

Use the examples below as a reference point.
{"structure notation": "O=C(NCCS(=O)(=O)c1ccc(C(F)(F)F)cn1)c1ccc(Cl)c(Br)c1", "target or test system": "Peroxisome proliferator-activated receptor delta (Homo sapiens)", "pIC50": 6.60}
{"structure notation": "CC(C)Cc1ccc(C(=O)NCCS(=O)(=O)c2ccc(C(F)(F)F)cn2)cc1", "target or test system": "Peroxisome proliferator-activated receptor delta (Homo sapiens)", "pIC50": 6.70}
{"structure notation": "Cc1cc(C(=O)NCCS(=O)(=O)c2ccc(C(F)(F)F)cn2)ccc1Cl", "target or test system": "Peroxisome proliferator-activated receptor delta (Homo sapiens)", "pIC50": 6.60}
{"structure notation": "O=C(NCCS(=O)(=O)c1ccc(C(F)(F)F)cn1)c1ccc(Br)cc1F", "target or test system": "Peroxisome proliferator-activated receptor delta (Homo sapiens)", "pIC50": 7.10}
{"structure notation": "O=C(NCCS(=O)(=O)c1ccc(C(F)(F)F)cn1)c1ccc(-c2ccccc2)cc1", "target or test system": "Peroxisome proliferator-activated receptor delta (Homo sapiens)", "pIC50": 6.60}

[a] O=C(NCCS(=O)(=O)c1ccc(C(F)(F)F)cn1)c1ccc(Cl)cc1
[b] O=C(NCCS(=O)(=O)c1ccc(C(F)(F)F)cn1)c1ccc(Cl)cc1Cl
Ask: Hi, I'm comparing two records. Which one has the lower pIC50, a or b ? Refer to your chosen item by its label in the answer.
Reply: b
(b: 6.70, a: 6.90)

====

Biological target: Peroxisome proliferator-activated receptor alpha (Homo sapiens)
Sequence (Q07869 whole entry): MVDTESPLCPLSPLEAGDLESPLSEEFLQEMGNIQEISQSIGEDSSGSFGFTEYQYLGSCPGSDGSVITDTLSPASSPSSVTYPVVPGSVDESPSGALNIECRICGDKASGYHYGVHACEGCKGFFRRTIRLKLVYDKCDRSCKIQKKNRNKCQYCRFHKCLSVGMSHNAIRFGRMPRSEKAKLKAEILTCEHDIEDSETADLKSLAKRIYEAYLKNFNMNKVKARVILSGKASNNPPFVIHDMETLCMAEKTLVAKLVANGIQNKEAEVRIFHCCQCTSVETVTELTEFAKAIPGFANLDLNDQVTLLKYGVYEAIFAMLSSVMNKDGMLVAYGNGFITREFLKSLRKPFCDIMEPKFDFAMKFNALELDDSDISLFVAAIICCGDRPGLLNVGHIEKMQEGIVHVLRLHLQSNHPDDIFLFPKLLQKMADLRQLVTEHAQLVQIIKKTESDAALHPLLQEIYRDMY
Assay: Displacement of [3H]GW2433 from human PPARalpha receptor by ligand displacement assay
pIC50: −log10 of the molar value.
Below, each of the compounds is paired with its reported pIC50 value.

Examples with their reported pIC50 follow.
{"structure notation": "O=C(NCCS(=O)(=O)c1ccc(C(F)(F)F)cn1)c1ccc(Cl)cc1Cl", "pIC50": "< 5.00"}
{"structure notation": "COC(=O)c1sccc1S(=O)(=O)Nc1ccc(Nc2ccccc2)cc1OC", "pIC50": "< 5.00"}

Consider the additional compound presented here.
Ask: May I ask what pIC50 has been recorded for O=C(NCCS(=O)(=O)c1ccccn1)c1ccc(Cl)cc1 ?
Reply: < 5.00

Source listed as ChEMBL document CHEMBL1157541.
